GI50 values for the molecules below.
- Test system: RPMI-8226
- assay.overview: NCI tumour cell line growth inhibition, 48 h
The source made the active and inactive calls. Cut-off read from the data, not from the text of the source: active = GI50 up to about 1.1 µM and inactive = higher.

Below, 3 molecules whose answers are already recorded.
molecule | parameter | measured.result
Cc1nnc(N2C(=O)C(=Cc3ccc(Cl)cc3)N=C2c2ccc(Cl)cc2)nc1/C=C\c1ccc(N(C)C)cc1 | GI50 | 72.3 µM (inactive)
CC(NC(=O)C(Cc1ccc(OC(=O)c2ccccc2)cc1)NC(=O)OC(C)(C)C)C(=O)NCC(=O)NC(Cc1ccccc1)C(=O)NN (stereo not given) | GI50 | 15.8 µM (inactive)
O=c1oc2c(Br)c(O)c(Br)cc2c2ccccc12 | GI50 | 27 µM (inactive)

GI50 for RPMI-8226 with input CC(C)NC(=O)OCc1c(COC(=O)NC(C)C)c(-c2cc[n+](COC(=O)C(C)C)cc2)n2c1CCC2 equals > 100 µM (inactive)

GI50 for RPMI-8226 with input O=C(/C(=C\c1ccccc1)CN1CCOCC1)c1ccc(Br)cc1 equals 2.43 µM (inactive)

GI50 for RPMI-8226 with input COC(=O)c1ccc(N/C=C(/C#N)c2ccsc2)cc1 equals 20.7 µM (inactive)

---

- System: NCI-H522
- assay.overview: NCI tumour cell line growth inhibition, 48 h
Activity calls are given as the source filed them. Cut-off read from the data, not from the text of the source: active = GI50 up to about 1.1 µM and inactive = higher.
Valid outcomes are listed here; reply with one: yes (1) for active, no (0) for inactive

Recorded results for 6 molecules are shown here.
molecule | assigned.category
CN(C)CCn1c(=O)c2ccc3c4c(nn3CCN(C)C)c3cc([N+](=O)[O-])ccc3n(c1=O)c24 | yes (1)
O=c1[nH]nc(-c2ccccc2)n1/N=C/c1ccc([N+](=O)[O-])cc1 | no (0)
N#CC1CCN2N=C(c3ccccc3)SC12c1ccccc1 (stereo not drawn) | no (0)
CCOC(=O)c1c2c(n(-c3ccc(C)cc3)c1C)-c1ccccc1C(=O)C2(C(=O)OCC)C(=O)OCC | no (0)
COc1cc2c(/C=C3/C(=O)Nc4ccccc43)c(Cl)[nH]c2cc1C | yes (1)
C/C(=C\[C@H]1C[C@@H]([C@@H]2CC[C@]34C[C@]23C=C[C@@H]2[C@@]3(C)CC=C5C[C@@H](c6ccccc6)OC[C@]5(C)[C@@H]3C[C@@H](O)[C@]24C)C(=O)O1)CO | no (0)

Just curious, what result did CC(=O)Nc1ccc(-c2nnc(SCC(=O)Nc3ccc(C)cc3)o2)cc1 get here?
no (0)

Just curious, what result did O=C1c2ccccc2-c2cc([N+](=O)[O-])c([N+](=O)[O-])cc21 get here?
yes (1)

---

- Test system: OVCAR-5
- assay.overview: NCI tumour cell line growth inhibition, 48 h
Activity calls are given as the source filed them. Rule as the data show it: active = GI50 up to about 1.1 µM and inactive = higher.
Valid outcomes are listed here; reply with one: active, inactive

compound | assigned.category
CSc1c(C#N)c(O)nc(N)c1C(=O)Nc1ccc(C)cc1 | inactive
C=CCN(N=O)C(=O)NCCCCC(NC(C)=O)C(=O)NCc1ccccc1 (stereo unspecified) | inactive
COc1ccc(CCN2CCC(C#N)(c3ccc(OC)c(OC)c3)CC2)cc1OC | inactive
CN(C)c1ccc(N2C(=S)SC(=N\c3ccccc3)/C2=N/c2ccccc2)cc1 | inactive
COc1ccc(C(=O)/C(Br)=C/C(=O)O)cc1 | inactive

Just curious, what result did N=C(N)n1nc2c(c1O)CCC2 get here?
inactive

Just curious, what result did COc1cc(C2c3cc4c(cc3[C@@H](Nc3cnc5ccccc5c3)C3COC(=O)[C@H]23)OCO4)cc(OC)c1O (stereo partly specified) get here?
active

Just curious, what result did Nc1ccc(C(=O)N/C(=C\c2cccc([N+](=O)[O-])c2)c2nc3cc(Cl)ccc3[nH]2)cc1 get here?
inactive

Just curious, what result did Cn1ncc2c(c1=O)Nc1ccccc1S2(=O)=O get here?
inactive

Just curious, what result did Cc1cc(NC(=O)NC(=O)c2ccccc2N(C)C)ccc1Oc1ncc(Br)cn1 get here?
inactive

Just curious, what result did Cc1[nH]c2cc([N+](=O)[O-])ccc2c1[N+](=O)[O-] get here?
inactive

Just curious, what result did O=C1C=CC2CCC1C2 (stereo unspecified) get here?
inactive

Just curious, what result did Nc1nc2c(ncn2C2OC(CO)C(O)C2N)c(=O)[nH]1 (stereo unspecified) get here?
inactive

Just curious, what result did Cc1cccc(-c2cc(O)c3c(C)cc(C)nc3n2)c1 get here?
inactive

Just curious, what result did NC(=S)N1N=C2c3ccccc3CC[C@H]2[C@@H]1c1ccc(Cl)cc1 get here?
inactive

Just curious, what result did NC(=S)N/N=C1\c2ccccc2CCC1CCC1(O)CCc2ccccc2C1=O (stereo unspecified) get here?
inactive

Just curious, what result did Cc1cc(Cl)ccc1NC(=O)CCCC(=O)C1CCC/C1=N\NC(=O)CC#N (stereo unspecified) get here?
inactive

Just curious, what result did COc1ccc(-n2c(C)nc3ccc(NC4OCC(OC(C)=O)C(OC(C)=O)C4OC(C)=O)cc3c2=O)cc1 (stereo unspecified) get here?
inactive

Just curious, what result did CN(C)CCn1c(=O)c2ccc3c4c(nn3CCN(C)C)c3cc([N+](=O)[O-])ccc3n(c1=O)c24 get here?
active

Just curious, what result did O=[N+]([O-])c1cc(Cl)cc2cc(Cl)cnc12 get here?
inactive

Just curious, what result did CCC(C)C(N)C(=O)N/N=C\c1c2c(nc3ccccc13)-c1cc3c(c(=O)n1C2)COC(=O)[C@]3(O)CC (stereo partly specified) get here?
inactive

Just curious, what result did O=C1Nc2ccccc2S/C1=C\c1ccccc1C(F)(F)F get here?
inactive

Just curious, what result did O=c1nc2occc2cn1C1CC(O)C(CO)O1 (stereo unspecified) get here?
inactive

Just curious, what result did O=C1C(c2ccc(Br)cc2)=[N+]([O-])c2ccccc21 get here?
inactive

Just curious, what result did Cc1cccc2[n+]1[C@H]1[C@H]([C@@H]3O[C@H]1c1ccccc13)[S+]([O-])N2 (stereo partly specified) get here?
inactive

Values compiled from ChEMBL document CHEMBL1201862.
